Molecular target: T1, FX activation peptide 12-mer … (human)
T1 sequence (peptide, C-terminally conjugated to biotin): PFDLLDFNQTQP
Experiment: peptide ELISA
Measure Name: ELISA signal relative to background
One number for each entry.

These recorded examples may help you get a feel for the data.
>  <Binder>
Nb 729A04 (VHH, not shown: small tags and cut ends) VHH: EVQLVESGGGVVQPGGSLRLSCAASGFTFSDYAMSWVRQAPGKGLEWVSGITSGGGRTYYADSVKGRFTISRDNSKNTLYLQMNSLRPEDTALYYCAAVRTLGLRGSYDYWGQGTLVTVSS

>  <ELISA signal relative to background>
1.41

$$$$
>  <Binder>
Nb 701C06 (VHH, not shown: small tags and cut ends) VHH: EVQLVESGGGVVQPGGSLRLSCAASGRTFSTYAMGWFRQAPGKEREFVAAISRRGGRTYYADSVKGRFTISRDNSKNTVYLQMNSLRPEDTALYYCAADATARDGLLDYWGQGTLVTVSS

>  <ELISA signal relative to background>
1.5

$$$$
>  <Binder>
Nb 701D07 (VHH, not shown: small tags and cut ends) VHH: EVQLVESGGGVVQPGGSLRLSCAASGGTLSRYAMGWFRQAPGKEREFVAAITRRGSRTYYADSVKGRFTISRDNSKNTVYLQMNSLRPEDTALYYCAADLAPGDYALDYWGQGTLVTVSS

>  <ELISA signal relative to background>
1.13

$$$$

Moving on to the next binder.
Request: What does the record list as ELISA signal relative to background for Nb 721E08 (VHH, not shown: small tags and cut ends) VHH: EVQLVESGGGVVQPGGSLRLSCAASGRTFSTYSMGWFRQAPGKEREFVAAITRRGSRTYYADSVKGRFTISRDNSKNTVYLQMNSLRPEDTALYYCAADRRPADSYLDYWGQGTLVTVSS ?
Response: 2.5
